- target_or_system: cardiac troponin C (F20Q TnC IAANS T53C) (Homo sapiens, UniProt P63316)
- experiment_summary: IAANS fluorescence titration
readout_name: pKd
// pKd is dimensionless: -log10 of concentration (M)

Sure, the documented pKd for cardiac troponin I peptide TnI128-180 128-180 (protein) LTQKIFDLRGKFKRPTLRRVRISADAMMQALLGARAKESLDLRAHLKQVKKED is 6.50

# credit: paper PMC2845643
